Where do the numbers come from? From paper PMC9653258.

This section presents compounds with their documented IC50 values.
- System: mitochondrial respiration of SKOV3 cells
- TEST_PROTOCOL: Microrespirometry (Seahorse XFe, oxygen consumption rate)
- Type: cell-based, human
- APPLIED_CONDITIONS: Homo sapiens, SK-OV-3, figure 4a, read-out: IC50 (residual OCR, concentration-response)
Quick reminder: number only, in nM, skip the unit.

QUERY_SMILES	U	IC50
Cc1cc(-c2nc(-c3ccc(OC(F)(F)F)cc3)no2)nn1Cc1ccnc(N2CCN(C3CC3)CC2)c1	nM	115

Next:
For record "Nc1ccc2ncnc(NCCc3ccc(Oc4ccccc4)cc3)c2c1" the listed IC50 is 11.1

====

- System: mitochondrial respiration of HCT116 cells
- TEST_PROTOCOL: Microrespirometry (Seahorse XFe, oxygen consumption rate)
- Type: cell-based, human
- APPLIED_CONDITIONS: Homo sapiens, HCT-116, figure 4a, read-out: IC50 (residual OCR, concentration-response)
- Method: Mitochondrial respiration was measured using the protocol described for the Seahorse XFe Cell Mito Stress Test Kit (Agilent #103015-100) following the manufacturer instructions. […] SRB was solubilized with 10 mM Tris and absorbance at 560 nm was determined using a Victor2 plate reader (Perkin-Elmer). Data (pmol min^−1) were normalized to blank corrected SRB absorbance.
This section presents compounds with their documented IC50 values.
Quick reminder: number only, in nM, skip the unit.

COMPOUND	IC50 / nM
Cc1cc(-c2nc(-c3ccc(OC(F)(F)F)cc3)no2)nn1Cc1ccnc(N2CCN(C3CC3)CC2)c1 [BAY 87-2243]	172

Next:
For record Nc1ccc2ncnc(NCCc3ccc(Oc4ccccc4)cc3)c2c1 [EVP 4593] the listed IC50 is 13
